Assign pIC50 to each entry below.
System: HeLa
TEST SUMMARY: Cytotoxicity against human HeLa cells after 72 hrs by MTT assay
Format: functional, cell-based
One number for each entry, as −log10 of the molar value.

SMILES REPRESENTATION	TARGET OF ASSAY	VALUE OBSERVED
CSc1nc2c(Nc3cccc(Cl)c3)c3ccccc3nc2s1	HeLa	4.16
CSc1nc2c(Nc3cccc(C(F)(F)F)c3)c3ccccc3nc2s1	HeLa	4.36

Inquiry: Dear colleague, I am looking for the recorded pIC50 of the following compound: `CCN(CC)CCNc1nc2c(Nc3cccc(C#N)c3)c3ccccc3nc2s1`
Reply text: 4.88

The origin of these recorded values is ChEMBL document CHEMBL1139240.
